tested on: SK-MEL-28; assay: SRB colorimetric assay of cell growth and viability, SK-MEL-28; format: cell-based, human; conditions: 48 hours exposure
Where a SMILES comes first, the peptide text is derived from it. Bridges are numbered along the chain shown (N, C = ends). [ ]: non-standard residue; d: D form. The star is where a group is joined. d(aIle) = CC[C@H](C)[C@@H](N)C(=O)O; d(aThr) = C[C@@H](O)[C@@H](N)C(=O)O; Hexanoyl(5-Me) = CC(C)CCCC(=O)*; Orn = NCCC[C@H](N)C(=O)O
quantityMeasured: GI50 (µM)
Form entry: value (µM) — number only.

Query: Can you look up the measured GI50 of C/C=C1\NC(=O)[C@H](Cc2ccccc2)NC(=O)[C@@H](C(C)C)NC(=O)[C@@H]([C@@H](C)CC)NC(=O)[C@H](NC(=O)[C@H](NC(=O)[C@H](CCCN)NC(=O)[C@H]2CCCN2C(=O)[C@H](NC(=O)[C@@H](NC(=O)[C@@H](NC(=O)[C@H](NC(=O)CCCCC(C)=O)C(C)C)[C@@H](C)O)C(C)C)C(C)C)[C@@H](C)CC)[C@@H](C)OC(=O)[C@H](C(C)C)NC1=O [Compound 27, [6-OHep^14]-KF] for me?
Reply: 6.7

Continuing:
Query: Which GI50 reading was recorded for the molecule CC[C@H](C)[C@@H](NC(=O)[C@H](CCCN)NC(=O)[C@H]1CCCN1C(=O)[C@H](NC(=O)[C@@H](NC(=O)[C@@H](NC(=O)[C@H](NC(=O)CCCC(C)C)C(C)C)[C@@H](C)O)C(C)C)C(C)C)C(=O)N[C@H]1C(=O)N[C@H]([C@@H](C)CC)C(=O)N[C@H](C(C)C)C(=O)N[C@@H](Cc2ccccc2)C(=O)NCC(=O)N[C@@H](C(C)C)C(=O)O[C@@H]1C [Compound 65, [Gly^2]-KF] ({Hexanoyl(5-Me)}-[dV]TV[dV][dP][Orn][d(aIle)][d(aThr)][d(aIle)][dV]FGV; ester 8-C) ?
Reply: 1.43
